experiment: recombinant barcode read abundance after kanamycin selection (control-corrected) (log10(CPM+1)); higher = more efficient recombination; sequences stand for … in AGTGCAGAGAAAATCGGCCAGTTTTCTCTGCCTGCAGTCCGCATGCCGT…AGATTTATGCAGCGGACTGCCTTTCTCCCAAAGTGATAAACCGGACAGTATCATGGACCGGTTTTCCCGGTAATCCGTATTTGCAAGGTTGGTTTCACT; site = the 11-nt target
Classification scheme (recombinant barcode read abundance (log10)): low: < 0.3; medium: ≥ 0.3 and < 0.7; high: ≥ 0.7

TTGAGGCCTTGGGTTCTAACCTGTTGCCT (site TTGAGGCCTAG) :: low

Please classify: CACAGGGCTTGGGTTCTAACCTGTTGCGG (site CACAGGGCTCC)
high

Also need GATACGTCTTGGGTTCTAACCTGTTGCCT (site GATACGGCTAG) , thanks.
low

Param item: AGAGCGACTTGGGTTCTAACCTGTTGCCT (site AGAGCGACTAG)
high

Next entry: GTACAATCTTGGGTTCTAACCTGTTGCAG (site GTACAATCTCT)
medium

Thanks! And GACGTACCTTGGGTTCTAACCTGTTGCCT (site GACATACCTAG) ?
medium

Try GGCTGAGCTTGGGTTCTAACCTGTTGCCT (site GGCTGAGCTAG) next.
high

Same for GAGCGCTCTTGGGTTCTAACCTGTTGCAG (site GAGCGCTCTCT)
high

Entry CCTTTGTCTTGGGTTCTAACCTGTTGCTT (site CCTTTGACTAA) please
low

Likewise for ACTCTGGCTTGGGTTCTAACCTGTTGCCT (site ACCCTGGCTAG) ?
low

* * *

assay: recombinant barcode read abundance after kanamycin selection (control-corrected) (log10(CPM+1)); higher = more efficient recombination; sequences stand for … in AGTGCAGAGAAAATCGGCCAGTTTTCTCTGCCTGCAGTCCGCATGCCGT…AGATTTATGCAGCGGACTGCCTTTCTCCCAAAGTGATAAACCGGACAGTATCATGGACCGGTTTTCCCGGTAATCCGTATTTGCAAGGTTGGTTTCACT; site = the 11-nt target
measurement_label: recombinant barcode read abundance (log10)
One number for each entry.

GTGTGTCCTTGGGTTCTAACCTGTTGCAT (site GTGTTTCCTAT) :: 0.052
GTAAGGACTTGGGTTCTAACCTGTTGCGG (site GTAAGGACTCC) :: 2.25
TAGCCACCTTGGGTTCTAACCTGTTGCCT (site AAGCCACCTAG) :: 0.151
ACGAGTCCTTGGGTTCTAACCTGTTGCCT (site ACGAGTCCTAG) :: 1.36
TACCCTACTTGGGTTCTAACCTGTTGCCT (site GACCCTACTAG) :: 0.0371

Give recombinant barcode read abundance (log10) for each of the items listed below.
1. AAGCAAACTTGGGTTCTAACCTGTTGCCT (site AAGCGAACTAG)
2. TCTTGTCCTTGGGTTCTAACCTGTTGCGT (site TCTTGTCCTCC)
3. GGCGACCCTTGGGTTCTAACCTGTTGCCT (site GGCGACCCTAG)

1. 0.22
2. 0.0386
3. 0.99

The following sequences each have a reported value; give each one's recombinant barcode read abundance (log10).
1. GTCGGTCCTTGGGTTCTAACCTGTTGCCG (site GTCGGTCCTCG)
2. GGGGCCTCTTGGGTTCTAACCTGTTGCAA (site GGGGCCTCTTT)

1. 1.04
2. 2.56

* * *

experiment: recombinant UMI read abundance after kanamycin selection (control-corrected) (log10(CPM+1)); higher = more efficient recombination; extreme values may be limits of the assay; sequences stand for … in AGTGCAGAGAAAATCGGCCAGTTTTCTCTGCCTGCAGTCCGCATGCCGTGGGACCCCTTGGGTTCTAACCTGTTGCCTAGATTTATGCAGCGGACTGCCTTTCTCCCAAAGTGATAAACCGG…AGGTTGGTTTCACT; site = the 11-nt donor
Binning scheme for recombinant UMI read abundance (log10): I (below 0.01), II (0.01 to below 1), III (1 or more)

Here are 6 sequences together with their reported answers.
AGGAATCCATGGACCGGTTTTCCCGGTAATCCGTATTTGTT (site AGGAATCCTAA) :: II
CATGCATCATGGACCGGTTTTCCCGGTAATCCGTATTTGCT (site CATGCATCTAG) :: III
TTTATCCCATGGACCGGTTTTCCCGGTAATCCGTATTTGAT (site TTTATCCCTAT) :: II
CGAAGACCATGGACCGGTTTTCCCGGTAATCCGTATTTGGG (site CGACGACCTCC) :: II
GTTAGAACATGGACCGGTTTTCCCGGTAATCCGTATTTGGT (site GTTAGAACTGC) :: I
CAGGCATCATGGACCGGTTTTCCCGGTAATCCGTATTTGTC (site CAGGCATCTGA) :: III

Looking at TGCCACCCATGGACCGGTTTTCCCGGTAATCCGTATTTGTT (site AGCCACCCTAA) , which class would you pick?
I

Entry to check: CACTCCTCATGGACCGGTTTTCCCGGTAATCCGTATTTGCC (site CAGTCCTCTGG)
III

// same read-out, input: CCTAATGCATGGACCGGTTTTCCCGGTAATCCGTATTTGGC (site CCTAATGCTGC)
I

Entry to check: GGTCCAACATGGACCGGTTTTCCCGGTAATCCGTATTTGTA (site AGTCCAACTTA)
II

# repeat for CGCTAGACATGGACCGGTTTTCCCGGTAATCCGTATTTGAG (site CGCTAGACTCT)
III

* * *

experiment: recombinant UMI read abundance after kanamycin selection (control-corrected) (log10(CPM+1)); higher = more efficient recombination; extreme values may be limits of the assay; sequences stand for … in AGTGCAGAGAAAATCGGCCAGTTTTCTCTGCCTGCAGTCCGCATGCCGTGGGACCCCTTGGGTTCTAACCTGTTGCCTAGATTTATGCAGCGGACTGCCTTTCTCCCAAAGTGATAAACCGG…AGGTTGGTTTCACT; site = the 11-nt donor
measurement_label: recombinant UMI read abundance (log10)
Numbers only.

Worked set:
CGGTTCCCATGGACCGGTTTTCCCGGTAATCCGTATTTGTG (site GGGTTCCCTCA) :: 0.0355
GATGTAACATGGACCGGTTTTCCCGGTAATCCGTATTTGCT (site TATGTAACTAG) :: 1.83
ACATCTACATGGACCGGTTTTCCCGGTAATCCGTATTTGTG (site ACGTCTACTCA) :: 0.0191
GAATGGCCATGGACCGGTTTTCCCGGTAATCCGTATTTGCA (site GAATGGCCTCG) :: 0.0219
AACCAAGCATGGACCGGTTTTCCCGGTAATCCGTATTTGAG (site AGCCAAGCTCT) :: 0.217

State recorded recombinant UMI read abundance (log10) for all listed sequences.
1. ATTCCATCATGGACCGGTTTTCCCGGTAATCCGTATTTGGA (site ATTCCATCTTC)
2. CGGTCAGCATGGACCGGTTTTCCCGGTAATCCGTATTTGCT (site CGATCATCTAG)
3. TTAGGACCATGGACCGGTTTTCCCGGTAATCCGTATTTGCA (site TTAGGACCTTG)
4. ACACAGCCATGGACCGGTTTTCCCGGTAATCCGTATTTGAC (site ACACAACCTGT)
5. ACTAGAACATGGACCGGTTTTCCCGGTAATCCGTATTTGAA (site ACTAGAACTGT)
6. TCCACTTCATGGACCGGTTTTCCCGGTAATCCGTATTTGCC (site TCCACTTCTGG)
7. CTTAAAGCATGGACCGGTTTTCCCGGTAATCCGTATTTGAT (site CGTAAAGCTAT)
8. TTGGAAACATGGACCGGTTTTCCCGGTAATCCGTATTTGCA (site ATGGAAACTTG)

1: 0.345; 2: 0; 3: 0.00659; 4: 0; 5: 0; 6: 0; 7: 0; 8: 0

Provide reported recombinant UMI read abundance (log10) for each item, in the same order as listed.
1. AAAAGATCATGGACCGGTTTTCCCGGTAATCCGTATTTGGC (site AAAAGATCTGC)
2. CTTAATACATGGACCGGTTTTCCCGGTAATCCGTATTTGGC (site CGTAATACTGC)
3. CGGTCGACATGGACCGGTTTTCCCGGTAATCCGTATTTGTT (site CGATCGACTAA)
4. TCAGGTCCATGGACCGGTTTTCCCGGTAATCCGTATTTGAT (site TCAGGTCCTAT)

1. 2.65
2. 0.0463
3. 0.0167
4. 1.68

So what's the measured recombinant UMI read abundance (log10) for this one? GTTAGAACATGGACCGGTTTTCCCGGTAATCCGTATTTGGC (site GTTAGAACTTC)
0

Hello, the source for this data is the supplement of paper PMC11208160, in case you need it.
